Assay: GSK_TCMDC: Inhibition Frequency Index (IFI). The number of non-kinase HTS assays where a compound showed > 50 % inhibition, expressed as a percentage of the number of such assays in which the compound was tested
Type: functional
Whole data set: some 13,000 compounds, median “IFI” near 4, cut for the highest 2% near 17. This excerpt belongs to a sample that is enriched for the highest values.
endpoint_label: IFI (%)
Only the number, expressed in %, is required.

Examples with their reported IFI follow.
compound=Cc1cccc2nc(-c3ccc(-c4cccc(CNCCCNS(C)(=O)=O)c4)s3)[nH]c12 recorded_result=3.96
compound=COc1c(Br)cc(Br)cc1-c1ccc(CN2C3CCCC2CCC3)[nH]1 recorded_result=6.82
compound="CCC(C)c1ccc(NC(=O)Nc2ccnc3ccccc23)cc1 (stereo not given)" recorded_result=10.2
compound="NCC1CCCN1Cc1cccc(-c2ccc(-c3nc4ccccc4[nH]3)s2)c1 (stereo not given)" recorded_result=0.97
compound=COc1cccc(NC(=O)c2cc(Br)cc(N3CCN(c4ccncc4)CC3)c2)c1 recorded_result=12.5

Prompt: GET /values?readout=IFI&item= `COc1ccc(-c2cnc3ccc(NCCCO)nn23)cc1OC`
Completion: 6.77

Prompt: GET /values?readout=IFI&item= `Cc1ccc(C(=O)Nc2ccc(Nc3ccnc4cc(-c5ccccn5)ccc34)cc2O)cc1`
Completion: 10.3

Prompt: GET /values?readout=IFI&item= `Oc1c(CN2CCC(Cc3ccccc3)CC2)cc(Cl)c2cccnc12`
Completion: 18.8

Prompt: GET /values?readout=IFI&item= `CCCCNS(=O)(=O)c1ccc(NC(=O)c2cc([N+](=O)[O-])ccc2Cl)cc1`
Completion: 5.17

Prompt: GET /values?readout=IFI&item= `Cc1ccc(-c2nn3c(O)c4c(nc3c2C)CCCC4)cc1`
Completion: 0.88

###

Experiment: GSK_TCMDC: Inhibition Frequency Index (IFI). The number of non-kinase HTS assays where a compound showed > 50 % inhibition, expressed as a percentage of the number of such assays in which the compound was tested
Type: functional
Whole data set: some 13,000 compounds, median “IFI” near 4, cut for the highest 2% near 17. The list comes from a sample in which the highest values are over-represented; it also holds close analogues and randomly drawn compounds.
Just a reminder that ties go to label 0: only IFI strictly below 10% counts as label 1.

compound=O=C(Nc1ccc2c(c1)CCNCC2)c1ccc(-c2ccc(Cl)cc2)cc1 discrete_label="label 1"
compound="COc1ccc2ccccc2c1CCCCN1CCN(CC(c2ccc(F)cc2)N2CCN(C(C)C)CC2)CC1 (stereo unspecified)" discrete_label="label 0"
compound=Cc1cccc2nc(-c3ccc(-c4ccc(NC(=O)Nc5ccc(Cl)cc5)cc4)cc3)[nH]c12 discrete_label="label 1"
compound=COc1ccc(O)c(-c2sc(N=C(N)N)nc2-c2ccccc2)c1 discrete_label="label 1"
compound=Cn1ncc2ccc(Nc3nccc(-c4ccc5c(c4)c(N)nn5C)n3)cc21 discrete_label="label 0"

Kindly review the next compound as well.
Prompt: Please indicate whether the reported IFI of `CCOC(=O)c1ccc(NC(=O)N(Cc2ccc(-c3ccc(CN4CCNCC4)cc3)cc2)C2CCN(Cc3ccccc3)CC2)cc1` is strictly below 10%.
Completion: label 1

###

Reported IFI values for the following compounds.
Test: GSK_TCMDC: Inhibition Frequency Index (IFI). The number of non-kinase HTS assays where a compound showed > 50 % inhibition, expressed as a percentage of the number of such assays in which the compound was tested
Type: functional
Over roughly 13,000 compounds, “IFI” has its median near 4; the highest 2% begin near 17. Many of the other results were omitted from the sample, so the highest values are more common in it than they were.
Only the number, expressed in %, is required.

Examples with their reported IFI follow.
compound=CN(c1ccc(NC(=O)Nc2cccc(Cl)c2)cc1)c1ccnc(N)n1 units_label=% recorded_result=6.9
compound=c1ccc(CCNc2ccnc(Nc3ccc4[nH]nnc4c3)n2)cc1 units_label=% recorded_result=3.23
compound="CC(N)(Cc1ccc(O)cc1)c1nnn[nH]1 (configuration not stated)" units_label=% recorded_result=0
compound="O=C(NC(Nc1ccc([N+](=O)[O-])cc1)C(Cl)(Cl)Cl)c1cccc(Cl)c1 (configuration not stated)" units_label=% recorded_result=13.9
compound=Cc1nc(C)c(-c2ccc(S(=O)(=O)c3ccc(Cl)cc3)cc2)c(O)c1Cl units_label=% recorded_result=0.78

Prompt: GET /values?readout=IFI&item= `Cc1cc2nc(-c3ccc(/C=C/C(=O)NC4CCN(Cc5ccccc5)CC4)cc3)[nH]c2cc1C`
Completion: 3.76

Prompt: GET /values?readout=IFI&item= `CN1CCN(Cc2cccc(Nc3nccc(Nc4ccc(Oc5ccccc5)cc4)n3)c2)CC1`
Completion: 3.01
